measured.on: HER2 expressed on the surface of cells (human, UniProt P04626 23-1255)
test.protocol: cell-based or functional assay
Outcome label depends on growth inhibition span ratio to WT, BT474 cells relative to 3 fold: at/above gives condition met, below gives condition not met.

Worked examples, 5 binders total:
[[record]]
binder = "Variant 14020 (antibody, name in Kabat numbering, V domains shown, also called v14020) VH: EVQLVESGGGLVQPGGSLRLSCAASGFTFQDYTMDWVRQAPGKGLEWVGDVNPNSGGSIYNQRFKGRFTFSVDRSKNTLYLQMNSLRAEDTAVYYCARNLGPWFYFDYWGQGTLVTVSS VL: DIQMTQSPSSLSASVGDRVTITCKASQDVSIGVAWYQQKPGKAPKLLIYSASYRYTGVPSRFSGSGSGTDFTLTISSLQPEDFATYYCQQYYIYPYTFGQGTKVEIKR"
discrete_label = "condition not met"

[[record]]
binder = "Variant 14022 (antibody, name in Kabat numbering, V domains shown, also called v14022) VH: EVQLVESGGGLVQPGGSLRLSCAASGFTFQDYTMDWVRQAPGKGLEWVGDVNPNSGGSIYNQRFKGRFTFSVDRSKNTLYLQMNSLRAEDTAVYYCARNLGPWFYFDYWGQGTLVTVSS VL: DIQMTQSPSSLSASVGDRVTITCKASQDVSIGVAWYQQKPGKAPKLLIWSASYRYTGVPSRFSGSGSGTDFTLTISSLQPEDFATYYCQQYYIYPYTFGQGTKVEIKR"
discrete_label = "condition not met"

[[record]]
binder = "Variant 14018 (antibody, name in Kabat numbering, V domains shown, also called v14018) VH: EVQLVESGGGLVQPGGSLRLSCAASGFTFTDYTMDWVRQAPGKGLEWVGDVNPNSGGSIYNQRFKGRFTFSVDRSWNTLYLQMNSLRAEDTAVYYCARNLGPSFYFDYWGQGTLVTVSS VL: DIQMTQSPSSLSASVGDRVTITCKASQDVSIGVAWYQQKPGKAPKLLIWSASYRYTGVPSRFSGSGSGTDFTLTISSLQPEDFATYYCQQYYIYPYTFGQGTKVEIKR"
discrete_label = "condition not met"

[[record]]
binder = "Variant 14023 (antibody, name in Kabat numbering, V domains shown, also called v14023) VH: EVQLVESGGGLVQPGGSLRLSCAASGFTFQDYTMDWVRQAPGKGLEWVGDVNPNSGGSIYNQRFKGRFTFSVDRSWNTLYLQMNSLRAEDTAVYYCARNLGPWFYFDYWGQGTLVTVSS VL: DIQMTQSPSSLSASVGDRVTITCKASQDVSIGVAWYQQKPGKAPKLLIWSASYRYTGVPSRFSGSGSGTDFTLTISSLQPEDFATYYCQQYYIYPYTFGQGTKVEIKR"
discrete_label = "condition met"

[[record]]
binder = "Variant 14021 (antibody, name in Kabat numbering, V domains shown, also called v14021) VH: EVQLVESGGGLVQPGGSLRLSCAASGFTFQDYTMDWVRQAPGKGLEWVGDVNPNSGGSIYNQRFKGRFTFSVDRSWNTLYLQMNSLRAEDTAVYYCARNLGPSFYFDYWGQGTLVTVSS VL: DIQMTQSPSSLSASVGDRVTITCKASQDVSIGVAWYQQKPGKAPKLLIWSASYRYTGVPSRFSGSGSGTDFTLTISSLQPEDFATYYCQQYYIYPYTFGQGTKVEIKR"
discrete_label = "condition met"


**Q:** Is growth inhibition span ratio to WT, BT474 cells at least 3 fold? Consider Variant 12471 (antibody, human IgG1, kappa, name in Kabat numbering, V domains shown, Kabat numbering; also called v12471; FSA version of v9996) VH: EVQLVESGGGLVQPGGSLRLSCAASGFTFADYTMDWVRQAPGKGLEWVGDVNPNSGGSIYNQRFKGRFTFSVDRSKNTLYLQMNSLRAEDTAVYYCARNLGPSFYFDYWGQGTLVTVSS VL: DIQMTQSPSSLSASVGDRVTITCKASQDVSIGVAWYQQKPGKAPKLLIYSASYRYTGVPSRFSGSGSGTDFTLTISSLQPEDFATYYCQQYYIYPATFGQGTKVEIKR
**A:** condition not met

Values compiled from patent US20180273635A1.
